- measurementProtocol: in vivo
- studyConditions: male, beagle, dog, in vivo, po, 0.25 g/kg
Entries and their Cmax values follow.

molecule: O=C(CC(O)(CC(=O)OCc1ccc(O[C@@H]2O[C@H](CO)[C@@H](O)[C@H](O)[C@H]2O)cc1)C(=O)O)OCc1ccc(O[C@@H]2O[C@H](CO)[C@@H](O)[C@H](O)[C@H]2O)cc1 [Parishin C, parishin C]
quantityUnit: ng/mL
Cmax: 144

molecule: O=C(CC(O)(CC(=O)OCc1ccc(OC2OC(CO)C(O)C(O)C2O)cc1)C(=O)OCc1ccc(OC2OC(CO)C(O)C(O)C2O)cc1)OCc1ccc(OC2OC(CO)C(O)C(O)C2O)cc1 (stereo not shown) [Parishin, parishin]
quantityUnit: ng/mL
Cmax: 462

molecule: OCc1ccc(O[C@@H]2O[C@H](CO)[C@@H](O)[C@H](O)[C@H]2O)cc1 [Gastrodin, gastrodin]
quantityUnit: ng/mL
Cmax: 2050

molecule: O=C(O)CC(O)(CC(=O)OCc1ccc(OC2OC(CO)C(O)C(O)C2O)cc1)C(=O)OCc1ccc(OC2OC(CO)C(O)C(O)C2O)cc1 (stereo not shown) [Parishin B, parishin B]
quantityUnit: ng/mL
Cmax: 746

###

Recorded AUC(0-inf) values for a group of compounds are listed next.
- measurementProtocol: in vivo
- studyConditions: male, beagle, dog, in vivo, po, 0.125 g/kg

compound: O=C(O)CC(O)(CC(=O)OCc1ccc(OC2OC(CO)C(O)C(O)C2O)cc1)C(=O)OCc1ccc(OC2OC(CO)C(O)C(O)C2O)cc1 (stereo not shown)
AUC(0-inf): 1.57 µg·h/mL

compound: O=C(CC(O)(CC(=O)OCc1ccc(OC2OC(CO)C(O)C(O)C2O)cc1)C(=O)OCc1ccc(OC2OC(CO)C(O)C(O)C2O)cc1)OCc1ccc(OC2OC(CO)C(O)C(O)C2O)cc1 (stereo not shown)
AUC(0-inf): 0.899 µg·h/mL

compound: OCc1ccc(O[C@@H]2O[C@H](CO)[C@@H](O)[C@H](O)[C@H]2O)cc1
AUC(0-inf): 5.08 µg·h/mL

compound: O=C(CC(O)(CC(=O)OCc1ccc(O[C@@H]2O[C@H](CO)[C@@H](O)[C@H](O)[C@H]2O)cc1)C(=O)O)OCc1ccc(O[C@@H]2O[C@H](CO)[C@@H](O)[C@H](O)[C@H]2O)cc1
AUC(0-inf): 0.359 µg·h/mL

###

- measurementProtocol: in vivo
- studyConditions: male, beagle, dog, in vivo, po, 0.125 g/kg
- Protocol: After full validation, the LC-ESI-MS/MS method was used to analyze large batches of beagle dog plasma. […] The corresponding pharmacokinetic parameters were generated by fitting plasma concentration profiles to a non-compartmental model. These are summarized in Table 3, expressed as the mean ± SD (n = 5). Quantitative analysis was conducted on a 1290 UPLC-photodiode array 6460 triple quadrupole mass spectrometry system (LC-MS/MS, Agilent Technologies, Palo Alto, CA, USA). Analysis was carried out on. […]
readoutKind: Tmax (h)

compound: O=C(CC(O)(CC(=O)OCc1ccc(O[C@@H]2O[C@H](CO)[C@@H](O)[C@H](O)[C@H]2O)cc1)C(=O)O)OCc1ccc(O[C@@H]2O[C@H](CO)[C@@H](O)[C@H](O)[C@H]2O)cc1
quantitativeReadout: 1.35
//
compound: OCc1ccc(O[C@@H]2O[C@H](CO)[C@@H](O)[C@H](O)[C@H]2O)cc1
quantitativeReadout: 1.1
//
compound: O=C(O)CC(O)(CC(=O)OCc1ccc(OC2OC(CO)C(O)C(O)C2O)cc1)C(=O)OCc1ccc(OC2OC(CO)C(O)C(O)C2O)cc1 (stereo not shown)
quantitativeReadout: 1.25
//
compound: O=C(CC(O)(CC(=O)OCc1ccc(OC2OC(CO)C(O)C(O)C2O)cc1)C(=O)OCc1ccc(OC2OC(CO)C(O)C(O)C2O)cc1)OCc1ccc(OC2OC(CO)C(O)C(O)C2O)cc1 (stereo not shown)
quantitativeReadout: 1

###

- measurementProtocol: Pharmacokinetic study in beagle dog plasma (LC-MS/MS) after intragastric administration of tall Gastrodia capsules
- studyConditions: male, beagle, dog, in vivo, po, 0.25 g/kg
A collection of molecules and their measured Tmax
readoutKind: Tmax

molecule: OCc1ccc(O[C@@H]2O[C@H](CO)[C@@H](O)[C@H](O)[C@H]2O)cc1
result: 1.75 h

molecule: O=C(CC(O)(CC(=O)OCc1ccc(O[C@@H]2O[C@H](CO)[C@@H](O)[C@H](O)[C@H]2O)cc1)C(=O)O)OCc1ccc(O[C@@H]2O[C@H](CO)[C@@H](O)[C@H](O)[C@H]2O)cc1
result: 2 h

molecule: O=C(CC(O)(CC(=O)OCc1ccc(OC2OC(CO)C(O)C(O)C2O)cc1)C(=O)OCc1ccc(OC2OC(CO)C(O)C(O)C2O)cc1)OCc1ccc(OC2OC(CO)C(O)C(O)C2O)cc1 (stereo not shown)
result: 1.55 h

molecule: O=C(O)CC(O)(CC(=O)OCc1ccc(OC2OC(CO)C(O)C(O)C2O)cc1)C(=O)OCc1ccc(OC2OC(CO)C(O)C(O)C2O)cc1 (stereo not shown)
result: 1.8 h

###

- measurementProtocol: in vivo
- studyConditions: male, beagle, dog, in vivo, po, 0.5 g/kg
readoutKind: Tmax (h)

compound: O=C(CC(O)(CC(=O)OCc1ccc(OC2OC(CO)C(O)C(O)C2O)cc1)C(=O)OCc1ccc(OC2OC(CO)C(O)C(O)C2O)cc1)OCc1ccc(OC2OC(CO)C(O)C(O)C2O)cc1 (stereo not shown)
quantitativeReadout: 1.45
--
compound: O=C(O)CC(O)(CC(=O)OCc1ccc(OC2OC(CO)C(O)C(O)C2O)cc1)C(=O)OCc1ccc(OC2OC(CO)C(O)C(O)C2O)cc1 (stereo not shown)
quantitativeReadout: 2
--
compound: O=C(CC(O)(CC(=O)OCc1ccc(O[C@@H]2O[C@H](CO)[C@@H](O)[C@H](O)[C@H]2O)cc1)C(=O)O)OCc1ccc(O[C@@H]2O[C@H](CO)[C@@H](O)[C@H](O)[C@H]2O)cc1
quantitativeReadout: 2.4
--
compound: OCc1ccc(O[C@@H]2O[C@H](CO)[C@@H](O)[C@H](O)[C@H]2O)cc1
quantitativeReadout: 2

###

Listing of recorded Cmax by entry.
- measurementProtocol: Pharmacokinetic study in beagle dog plasma (LC-MS/MS) after intragastric administration of tall Gastrodia capsules
- studyConditions: male, beagle, dog, in vivo, po, 0.125 g/kg

molecule: OCc1ccc(O[C@@H]2O[C@H](CO)[C@@H](O)[C@H](O)[C@H]2O)cc1
Cmax / ng/mL: 1200
--
molecule: O=C(CC(O)(CC(=O)OCc1ccc(OC2OC(CO)C(O)C(O)C2O)cc1)C(=O)OCc1ccc(OC2OC(CO)C(O)C(O)C2O)cc1)OCc1ccc(OC2OC(CO)C(O)C(O)C2O)cc1 (stereo not shown)
Cmax / ng/mL: 388
--
molecule: O=C(O)CC(O)(CC(=O)OCc1ccc(OC2OC(CO)C(O)C(O)C2O)cc1)C(=O)OCc1ccc(OC2OC(CO)C(O)C(O)C2O)cc1 (stereo not shown)
Cmax / ng/mL: 526
--
molecule: O=C(CC(O)(CC(=O)OCc1ccc(O[C@@H]2O[C@H](CO)[C@@H](O)[C@H](O)[C@H]2O)cc1)C(=O)O)OCc1ccc(O[C@@H]2O[C@H](CO)[C@@H](O)[C@H](O)[C@H]2O)cc1
Cmax / ng/mL: 107

###

- measurementProtocol: Pharmacokinetic study in beagle dog plasma (LC-MS/MS) after intragastric administration of tall Gastrodia capsules
- studyConditions: male, beagle, dog, in vivo, po, 0.5 g/kg
MRT inf values, listed per item

compound: OCc1ccc(O[C@@H]2O[C@H](CO)[C@@H](O)[C@H](O)[C@H]2O)cc1 [Gastrodin, gastrodin]
quantityUnit: h
MRT inf: 3.93
//
compound: O=C(CC(O)(CC(=O)OCc1ccc(O[C@@H]2O[C@H](CO)[C@@H](O)[C@H](O)[C@H]2O)cc1)C(=O)O)OCc1ccc(O[C@@H]2O[C@H](CO)[C@@H](O)[C@H](O)[C@H]2O)cc1 [Parishin C, parishin C]
quantityUnit: h
MRT inf: 3.25
//
compound: O=C(O)CC(O)(CC(=O)OCc1ccc(OC2OC(CO)C(O)C(O)C2O)cc1)C(=O)OCc1ccc(OC2OC(CO)C(O)C(O)C2O)cc1 (stereo not shown) [Parishin B, parishin B]
quantityUnit: h
MRT inf: 2.8
//
compound: O=C(CC(O)(CC(=O)OCc1ccc(OC2OC(CO)C(O)C(O)C2O)cc1)C(=O)OCc1ccc(OC2OC(CO)C(O)C(O)C2O)cc1)OCc1ccc(OC2OC(CO)C(O)C(O)C2O)cc1 (stereo not shown) [Parishin, parishin]
quantityUnit: h
MRT inf: 2.5

###

- measurementProtocol: in vivo
- studyConditions: male, beagle, dog, in vivo, po, 0.25 g/kg
readoutKind: MRT inf (h)

compound: O=C(O)CC(O)(CC(=O)OCc1ccc(OC2OC(CO)C(O)C(O)C2O)cc1)C(=O)OCc1ccc(OC2OC(CO)C(O)C(O)C2O)cc1 (stereo not shown)
readoutKind: MRT inf
quantitativeReadout: 2.84

compound: O=C(CC(O)(CC(=O)OCc1ccc(OC2OC(CO)C(O)C(O)C2O)cc1)C(=O)OCc1ccc(OC2OC(CO)C(O)C(O)C2O)cc1)OCc1ccc(OC2OC(CO)C(O)C(O)C2O)cc1 (stereo not shown)
readoutKind: MRT inf
quantitativeReadout: 2.65

compound: O=C(CC(O)(CC(=O)OCc1ccc(O[C@@H]2O[C@H](CO)[C@@H](O)[C@H](O)[C@H]2O)cc1)C(=O)O)OCc1ccc(O[C@@H]2O[C@H](CO)[C@@H](O)[C@H](O)[C@H]2O)cc1
readoutKind: MRT inf
quantitativeReadout: 3.31

compound: OCc1ccc(O[C@@H]2O[C@H](CO)[C@@H](O)[C@H](O)[C@H]2O)cc1
readoutKind: MRT inf
quantitativeReadout: 3.8

This collection of values is drawn from paper PMC6150220.
